Hey, just so you know, these numbers are from patent US9278954B2.

Target or system: human ACC2 (Homo sapiens (Human))
Quantity: pIC50
In simple prose, pIC50 is minus the logarithm base ten of a concentration in moles per litre.

INSERT INTO measurements (molecule, target_or_system, quantity, observed) VALUES
  ('C=CCNC(=O)C(C)c1ccc(O[C@@H]2CCN(c3ccc(OCC4CC4(F)F)cn3)C2)cc1 (some centres unmarked) [Example 1.31]', 'human ACC2 (Homo sapiens (Human))', 'pIC50', 6.42),
  ('CC(C(=O)N[C@H](C)CO)c1ccc(O[C@@H]2CCN(c3ccc(OCC4CC4(F)F)cn3)C2)cc1 (some centres unmarked) [Example 1.57]', 'human ACC2 (Homo sapiens (Human))', 'pIC50', 6.23);

Exam item: I'm curious: which pIC50 was measured for CCNC(=O)C(C)c1ccc(O[C@@H]2CCN(c3cccc(C)c3)C2)cc1 (some centres unmarked) [Example 7.16] tested on human ACC2 (Homo sapiens (Human))?
Marked response: 6.39

Exam item: Another molecule to check: CCNC(=O)C(C)c1ccc(O[C@@H]2CCN(c3ccc(F)c(C(F)(F)F)c3)C2)cc1 (some centres unmarked) [Example 7.6]
Marked response: 6.64

Exam item: Another molecule to check: CC(C(=O)NC1CCOCC1)c1ccc(O[C@@H]2CCN(c3ncnc(OCC(C)(C)O)c3Cl)C2)cc1 (some centres unmarked) [Example 1.91]
Marked response: 5.53

Exam item: Another molecule to check: CC(C(=O)NCC(F)F)c1ccc(O[C@@H]2CCN(c3nc(N(C)C)ncc3F)C2)cc1 (some centres unmarked) [Example 1.43]
Marked response: 6.35

Exam item: Another molecule to check: CC(C(=O)NCCF)c1ccc(O[C@@H]2CCN(c3ncnc(OCC(C)(F)F)c3F)C2)cc1 (some centres unmarked) [Example 1.55]
Marked response: 6.24

Exam item: Another molecule to check: CCNC(=O)C(C)c1ccc(O[C@@H]2CCN(c3cccc(C)n3)C2)cc1 (some centres unmarked) [Example 7.33]
Marked response: 6.09

---

The next entries give measured pIC50 for human ACC2 (Homo sapiens (Human)).
In simple prose, pIC50 is minus the logarithm base ten of a concentration in moles per litre.

// solved cases for pIC50 follow
INSERT INTO measurements (compound, observed) VALUES
  ('CC[C@@H](C)NC(=O)C(C)c1ccc(O[C@@H]2CCN(c3ncnc(OCC(C)(F)F)c3F)C2)cc1 (stereo partly shown)', 6.22),
  ('CCNC(=O)C(C)c1ccc(O[C@@H]2CCN(c3ccc(OCC4CC4(F)F)nc3C#N)C2)cc1 (stereo partly shown)', 6.33);

Next up:
Exam item: I'm curious: which pIC50 was measured for CC(C(=O)Nc1cccc(F)c1)c1ccc(O[C@@H]2CCN(c3nc(N(C)C)ncc3F)C2)cc1 (stereo partly shown) tested on human ACC2 (Homo sapiens (Human))?
Marked response: 6.52

---

Target or system: human ACC2 (Homo sapiens (Human), UniProt O00763)
Sequence (O00763 129-2458): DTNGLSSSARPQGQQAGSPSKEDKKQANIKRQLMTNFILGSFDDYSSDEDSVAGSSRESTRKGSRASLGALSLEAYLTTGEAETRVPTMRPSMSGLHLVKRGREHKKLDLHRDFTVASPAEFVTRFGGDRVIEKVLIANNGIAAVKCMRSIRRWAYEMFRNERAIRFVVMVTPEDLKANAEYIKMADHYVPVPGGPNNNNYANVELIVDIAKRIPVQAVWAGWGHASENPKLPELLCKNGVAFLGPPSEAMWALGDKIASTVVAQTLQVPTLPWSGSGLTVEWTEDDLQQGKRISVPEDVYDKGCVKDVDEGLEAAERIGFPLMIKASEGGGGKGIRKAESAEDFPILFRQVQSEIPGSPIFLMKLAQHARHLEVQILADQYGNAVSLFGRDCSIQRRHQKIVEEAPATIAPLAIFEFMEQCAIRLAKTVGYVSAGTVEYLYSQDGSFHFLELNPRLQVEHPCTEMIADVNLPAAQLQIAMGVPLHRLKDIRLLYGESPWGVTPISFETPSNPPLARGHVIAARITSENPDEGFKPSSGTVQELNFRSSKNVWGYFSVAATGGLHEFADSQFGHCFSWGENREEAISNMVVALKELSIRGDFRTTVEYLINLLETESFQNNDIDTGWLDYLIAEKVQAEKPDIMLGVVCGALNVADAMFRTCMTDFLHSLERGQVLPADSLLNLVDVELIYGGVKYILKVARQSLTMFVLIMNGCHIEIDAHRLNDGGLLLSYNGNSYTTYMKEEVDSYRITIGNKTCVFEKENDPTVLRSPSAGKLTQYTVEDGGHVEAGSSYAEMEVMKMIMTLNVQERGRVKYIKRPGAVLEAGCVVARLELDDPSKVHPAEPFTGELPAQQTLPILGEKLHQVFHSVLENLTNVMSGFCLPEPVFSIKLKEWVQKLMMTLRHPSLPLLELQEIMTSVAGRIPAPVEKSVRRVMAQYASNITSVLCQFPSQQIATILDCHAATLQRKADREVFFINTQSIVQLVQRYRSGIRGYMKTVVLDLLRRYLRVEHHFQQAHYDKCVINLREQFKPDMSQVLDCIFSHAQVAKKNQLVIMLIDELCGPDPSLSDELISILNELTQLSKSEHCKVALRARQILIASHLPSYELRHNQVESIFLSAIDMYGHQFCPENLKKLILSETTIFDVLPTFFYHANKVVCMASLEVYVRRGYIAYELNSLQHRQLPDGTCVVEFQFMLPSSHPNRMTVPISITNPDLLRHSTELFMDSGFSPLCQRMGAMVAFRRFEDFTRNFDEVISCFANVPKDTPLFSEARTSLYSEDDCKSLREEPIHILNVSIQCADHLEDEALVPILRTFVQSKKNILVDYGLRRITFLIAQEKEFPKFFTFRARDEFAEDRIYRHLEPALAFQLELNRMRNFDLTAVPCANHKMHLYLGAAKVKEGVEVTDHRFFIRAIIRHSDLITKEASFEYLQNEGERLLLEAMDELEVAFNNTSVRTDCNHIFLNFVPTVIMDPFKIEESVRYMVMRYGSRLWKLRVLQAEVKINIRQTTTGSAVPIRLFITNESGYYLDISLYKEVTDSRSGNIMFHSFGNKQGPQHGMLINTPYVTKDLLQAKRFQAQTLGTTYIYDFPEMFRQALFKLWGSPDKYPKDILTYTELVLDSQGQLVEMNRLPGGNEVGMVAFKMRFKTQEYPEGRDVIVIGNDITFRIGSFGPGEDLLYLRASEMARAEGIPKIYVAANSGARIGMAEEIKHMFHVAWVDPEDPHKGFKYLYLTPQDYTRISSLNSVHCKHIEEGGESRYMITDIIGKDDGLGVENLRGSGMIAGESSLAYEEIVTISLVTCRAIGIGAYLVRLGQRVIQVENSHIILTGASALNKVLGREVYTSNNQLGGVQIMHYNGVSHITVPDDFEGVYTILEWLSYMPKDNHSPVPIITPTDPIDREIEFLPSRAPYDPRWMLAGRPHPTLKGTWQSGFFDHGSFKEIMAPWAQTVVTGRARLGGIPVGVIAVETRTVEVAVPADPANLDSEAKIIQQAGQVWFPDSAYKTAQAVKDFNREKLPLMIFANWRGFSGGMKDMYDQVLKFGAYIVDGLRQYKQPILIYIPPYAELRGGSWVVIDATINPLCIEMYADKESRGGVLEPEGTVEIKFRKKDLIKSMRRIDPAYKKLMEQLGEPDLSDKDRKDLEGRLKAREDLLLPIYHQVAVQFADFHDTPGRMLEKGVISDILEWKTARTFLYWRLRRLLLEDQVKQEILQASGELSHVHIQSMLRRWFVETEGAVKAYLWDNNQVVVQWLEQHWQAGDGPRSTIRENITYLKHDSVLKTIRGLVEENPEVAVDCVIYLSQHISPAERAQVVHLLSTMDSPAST
IC50 under 300 nM gets criterion met, anything at or over 300 nM gets criterion not met.

# count of solved cases: 3
INSERT INTO assay_data (molecule, target_or_system, label) VALUES
  ('CCNC(=O)C(C)c1ccc(O[C@@H]2CCN(c3ncnc(OCC(C)(F)F)c3F)C2)cc1 (stereo partly shown)', 'human ACC2 (Homo sapiens (Human), UniProt O00763)', 'criterion not met'),
  ('CCNC(=O)C(C)c1ccc(O[C@@H]2CCN(c3ccc(OC4CC4)cn3)C2)cc1 (stereo partly shown)', 'human ACC2 (Homo sapiens (Human), UniProt O00763)', 'criterion not met'),
  ('CC(C(=O)NCC(F)(F)F)c1ccc(O[C@@H]2CCN(c3ncnc(OCC(C)(F)F)c3F)C2)cc1 (stereo partly shown)', 'human ACC2 (Homo sapiens (Human), UniProt O00763)', 'criterion not met');

Exam item: Say whether its IC50 is strictly beneath 300 nM. Entry: CCCNC(=O)C(C)c1ccc(O[C@@H]2CCN(c3ncnc(OCC(C)(F)F)c3F)C2)cc1 (stereo partly shown)
Marked response: criterion not met

Exam item: Another molecule to check: CCNC(=O)C(C)c1ccc(O[C@@H]2CCN(c3nc(N(C)C)ncc3F)C2)cc1 (stereo partly shown) [Example 1.27]
Marked response: criterion not met

Exam item: Another molecule to check: CC(C(=O)NC1CC1C)c1ccc(O[C@@H]2CCN(c3nc(N(C)C)ncc3F)C2)cc1 (single isomer, unassigned) [6.2 isomer 1]
Marked response: criterion met
